The values you see were collected from patent US20040248887A1.

The following molecules have recorded Ki on Cathepsin L (Homo sapiens, UniProt P07711).
Sequence (P07711 114-333, species assumed): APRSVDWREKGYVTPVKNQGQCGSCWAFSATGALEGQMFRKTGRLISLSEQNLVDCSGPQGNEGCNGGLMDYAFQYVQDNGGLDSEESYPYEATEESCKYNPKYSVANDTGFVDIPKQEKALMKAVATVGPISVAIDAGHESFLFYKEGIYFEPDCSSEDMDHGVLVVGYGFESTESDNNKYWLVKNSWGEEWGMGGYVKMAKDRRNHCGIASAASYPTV

Exercise: System Cathepsin L (Homo sapiens, UniProt P07711). Read-out Ki. Item `Cc1noc(C)c1NC(=O)N[C@@H](CC1CCCCC1)C(=O)NCCN1CCc2cc(F)ccc21` . Report value.
Solution: > 10 µM

* * *

assay_system: Cathepsin S (Homo sapiens)
Sequence (P25774 115-331, species assumed): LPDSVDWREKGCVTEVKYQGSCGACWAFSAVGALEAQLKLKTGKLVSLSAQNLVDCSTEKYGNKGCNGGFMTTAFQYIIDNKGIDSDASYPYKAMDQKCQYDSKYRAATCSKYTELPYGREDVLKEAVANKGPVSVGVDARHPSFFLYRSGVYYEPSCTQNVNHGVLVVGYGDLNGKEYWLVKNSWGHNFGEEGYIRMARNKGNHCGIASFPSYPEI
test: Cathepsin S inhibition, fluorogenic peptide substrate kinetic assay
Format: biochemical
cond: Table II; Cathepsin S inhibition constant, pH5.5; read-out: Ki Cat. S
measured_attribute: Ki

Some solved entries appear below for comparison.
compound	Ki
C[C@@H](CNc1ccc(C(=N)N)cc1)NC(=O)C(NC(=O)c1ccc(OCc2ccccc2)cc1)c1ccc(Cl)cc1Cl (mixture of isomers) [Compound 175]	< 1000 nM
CC(C)(C)C[C@H](NC(=O)OC(C)(C)C)C(=O)N[C@@H](CC#N)CN1CCc2cc(F)ccc21 [Compound 164]	< 1000 nM
COc1cccc(C(=O)N[C@@H](CC2CCCCC2)C(=O)N[C@@H](CO)CN2CCc3cc(F)ccc32)c1 [Compound 150]	< 100 nM
COc1cccc(C(=O)N[C@@H](CC(C)(C)C)C(=O)N[C@@H](CC#N)CN2CCc3cc(F)ccc32)c1 [Compound 165]	< 100 nM

Exercise: Input CC(C)(C)C[C@H](NC(=O)OCc1ccccc1)C(=O)N[C@@H](CC(=O)O)CN1CCc2cc(F)ccc21 [Compound 159] , output reported Ki.
Solution: < 1000 nM

Exercise: Input CC(=O)Nc1nc(C)c(S(=O)(=O)N[C@@H](CC2CCCCC2)C(=O)NCCN2CCc3cc(F)ccc32)s1 [Compound 257] , output reported Ki.
Solution: < 100 nM

Exercise: Input C[C@@H](CN1CC(C)(C)c2cc(F)ccc21)NC(=O)[C@H](CC1CCCCC1)NC(=O)OC1CCOCC1 [Compound 215] , output reported Ki.
Solution: < 100 nM

Exercise: Input COc1ccc(NCCNC(=O)[C@H]2CCCC[C@H]2NC(=O)c2cccc(C)c2)cc1 (relative stereo) [Compound 1] , output reported Ki.
Solution: < 10000 nM

Exercise: Input O=C(N[C@@H](CC1CCCCC1)C(=O)NCCN1CCc2cc(F)ccc21)C1CCN(S(=O)(=O)c2ccc(Cl)cc2)CC1 [Compound 17] , output reported Ki.
Solution: < 1000 nM

* * *

assay_system: Cathepsin S (Homo sapiens)
test: Cathepsin S inhibition, fluorogenic peptide substrate kinetic assay
Format: biochemical
cond: Table II; Cathepsin S inhibition constant, pH5.5; read-out: Ki Cat. S
measured_attribute: Ki

Some solved entries appear below for comparison.
compound	assay_system	measured_attribute	endpoint_value
COc1ccc(NC[C@@H](C)NC(=O)[C@H](CCC2CCCCC2)NC(=O)c2cc3ccccc3[nH]2)cc1 [Compound 25]	Cathepsin S (Homo sapiens)	Ki	< 10000 nM
Cc1nc(-c2ccc(S(=O)(=O)N[C@@H](CC3CCCCC3)C(=O)NCCN3CCc4cc(F)ccc43)s2)cs1 [Compound 237]	Cathepsin S (Homo sapiens)	Ki	< 100 nM
CC(=O)N1CCC(Oc2ccc(C(=O)N[C@@H](CC3CCCCC3)C(=O)NCCN3CCc4cc(F)ccc43)cc2)CC1 [Compound 69]	Cathepsin S (Homo sapiens)	Ki	< 1000 nM

Exercise: Input C[C@@H](CNc1cc(F)cc(F)c1)NC(=O)[C@H](CC1CCCCC1)NC(=O)c1ccc(-c2cccc(F)c2)o1 [Compound 87] , output reported Ki.
Solution: < 100 nM
